Each item that follows carries a reported EC50.
Biological target: T1, Recombinant Hyr1 N-terminus fragment (Candida albicans, UniProt Q5AL03 63-350)
T1 construct: the last 288 residues are Hyr1 63-350; Expressed in HEK293F cells, 32 kDa; also called recombinant N-terminus of the Hyr1 protein; purified Hyr1 protein
T1 sequence: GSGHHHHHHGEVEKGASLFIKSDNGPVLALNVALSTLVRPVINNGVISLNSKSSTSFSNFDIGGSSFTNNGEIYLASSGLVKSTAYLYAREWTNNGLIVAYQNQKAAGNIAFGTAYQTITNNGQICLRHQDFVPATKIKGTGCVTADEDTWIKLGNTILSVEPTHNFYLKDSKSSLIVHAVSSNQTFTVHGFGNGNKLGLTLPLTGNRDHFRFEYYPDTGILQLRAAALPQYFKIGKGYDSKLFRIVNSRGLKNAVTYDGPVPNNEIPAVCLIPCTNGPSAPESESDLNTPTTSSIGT
Experiment: ELISA, plate coated with recombinant Hyr1 N-terminus, titrated mAb

binder | EC50, µg/mL
AB120 (antibody, human IgG1, V domains shown, Tested as purified recombinant whole human IgG1 (Expi293F); also called 06-AB-120; anti-Hyr1 mAb) VH: EVQLVQSGGGLVQPGGSLGLSCAASGFIFTSYAMTWVRQAPGKGLEWVSVITGNVGTSYYADSVKGRFTISRDNSKKTVSLQMNSLRAEDTAIYYCVKTRYDFSSGYYFDDWGQGTLVSVSS VL: DIVMTQSPSSVSASVGDKVTITCRASQGISRWLAWYQQKPGEAPELLIYAASSLQSGVPSRFSGSGSGTDFTLTISSLQPEDFATYYCQQANSFPITFGQGTRLQIK | 0.104
AB122 (antibody, human IgG1, V domains shown, Tested as purified recombinant whole human IgG1 (Expi293F); also called 06-AB-122; anti-Hyr1 mAb) VH: EVQLVQSGGGLAQPGRSLRLSCAASGFGFDDFAMHWVRQPPGKGLEWVSGLTWNGGSIDYAGSVRGRFTISRDNAKNSLFLQMNSLRAEDTALYYCAKGLSGGTMAPFDIWGQGTMVSVSS VL: QAGLTQPPSVSVAPGQTATIPCGGNNIGSKHVHWYQQKPGQAPVAVVYDDSDRPSGVPERFSGSNSGNTATLTISSVEAGDEADYYCQVWDRSSDHFWLFGGGTRLTVL | 0.0496
AB123 (antibody, human IgG1, V domains shown, Tested as purified recombinant whole human IgG1 (Expi293F); also called 06-AB-123; anti-Hyr1 mAb) VH: EVQLLESGGGVVQPGRSLRLSCAASGFTFSNYGMHWVRQAPGKGLEWVAVVWFDGSYKYYTDSVKGRFTISRDNSKSTLYLQMNSLRAEDTAVYYCVSPIMTSAFDIWGPGTMVSVSS VL: QLVLTQPPSASGSPGQSVTISCTGTSSDVGGSNFVSWYQHHPGKAPKLMIYEVSQRPSGVPDRFSGSKSGNTASLTVSGLQADDEADYYCSSYAGSVVLFGGGTKLTVL | 0.0533
AB121 (antibody, human IgG1, V domains shown, Tested as purified recombinant whole human IgG1 (Expi293F); also called 06-AB-121; anti-Hyr1 mAb) VH: EVQLVESGGTLVQPGGSLRLSCAASGFTFSDYWMNWVRQAPGKGLEWVANIKQDGSEKYYVDSLRGRVTISRDNAQNSVFLQMHSLSVEDTAVYYCARDGYTFGPATTELDHWGRGTLVSVSS VL: QLVLTQPPSVSVSPGQTASITCSGDELRNKYTSWYQQKSGQSPVLVIYQDNNRPSGIPERFSGSQSGDTATLTISGTQAVDEADYYCQAWVSQTLVFGGGTKLTVL | 0.0765
AB124 (antibody, human IgG1, V domains shown, Tested as purified recombinant whole human IgG1 (Expi293F); also called 06-AB-124; anti-Hyr1 mAb) VH: EVQLVESGGGVVQPGRSLRLSCAASGFTFSNYGMHWVRQAPGKGLEWVAVVWLDGSYKYYTGSVKGRFTISRDNSKSTLYLQMNSLRAEDTAAYYCVSPIMTSAFDIWGPGTMVTVSS VL: QLVLTQPPSASGSPGQSVTISCTGTSSDVGGSNFVSWYQHHPGKAPKLMIYEVSQRPSGVPDRFSGSKSGNTASLTVSGLQADDEADYYCSSYAGSVVLFGGGTKLTVL | 1.05
